Tested on: UGT activity in human liver microsomes (HLM)
test method notes: Inhibition of UGT activity in human liver microsomes, compound 3138 as substrate
Assay type: biochemical
experimental conditions: 50 μM compound 3138, 0.1 mg/mL HLM, 15 minutes at 37° C.; read-out: IC50 for HLM utilization of compound 3138
pIC50: −log10 of the molar value.

structure smiles string: O=C(O)Cc1ccccc1Nc1c(Cl)cccc1Cl
pIC50: 4.22
